// data source = patent US20260176352A1

Entries and their Exp 2 IC50 (nM), cAMP antagonist assay values follow.
molecular target: native full length human CB1 receptor (cannabinoid 1 receptor) (human, UniProt P21554 1-472); experiment: cell-based or functional assay
Sequence (P21554 whole entry): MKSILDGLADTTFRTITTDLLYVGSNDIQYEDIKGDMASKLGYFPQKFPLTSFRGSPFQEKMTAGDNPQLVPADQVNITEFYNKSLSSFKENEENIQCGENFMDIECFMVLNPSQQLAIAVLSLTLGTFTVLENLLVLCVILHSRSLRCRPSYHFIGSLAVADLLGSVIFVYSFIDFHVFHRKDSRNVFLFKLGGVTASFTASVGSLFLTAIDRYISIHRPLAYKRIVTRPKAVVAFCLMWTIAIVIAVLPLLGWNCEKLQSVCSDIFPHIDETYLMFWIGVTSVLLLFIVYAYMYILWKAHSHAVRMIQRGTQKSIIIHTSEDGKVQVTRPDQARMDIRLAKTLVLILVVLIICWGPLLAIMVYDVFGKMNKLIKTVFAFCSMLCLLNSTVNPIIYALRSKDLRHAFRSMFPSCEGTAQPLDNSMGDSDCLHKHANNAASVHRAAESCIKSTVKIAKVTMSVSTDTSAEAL
Quick reminder: number only, in nM, skip the unit.

Lab book: Exp 2 IC50 (nM), cAMP antagonist assay of RY-HL-LC-A12 FACS4 (IgG4 S228P) (antibody, V domains shown) VH: QVQLVQSGAEVKKPGSSVKVSCKASGYEFSYYWMNWVRQAPGQGLEWMGQIYPGDGETKYAQKFQGRVTITADKSTSTAYMELSSLRSEDTAVYYCARSHGNYLPYWGQGTLVTVSS VL: EIVLTQSPATLSLSPGERATLSCRASQSVSSRYLHWYQQKPGQAPRLLIYGTSNLASGIPARFSGSGSGTDFTLTISRLEPEDFAVYYCHQYSRSPPTFGQGTKVEIKR noted as 33.9

Lab book: Exp 2 IC50 (nM), cAMP antagonist assay of RY-LC-A10 FACS5 (IgG4 S228P) (antibody, V domains shown) VH: QVQLVQSGAEVKKPGSSVKVSCKASGYEFSYYWMNWVRQAPGQGLEWMGQIYPGDGETKYAQKFQGRVTITADKSTSTAYMELSSLRSEDTAVYYCARSHGNYLPYWGQGTLVTVSS VL: EIVLTQSPATLSLSPGERATLSCRASQSVSSRYLHWYQQKPGQAPRLLIYSTSNRASGIPARFSGSGSGTDFTLTISRLEPEDFAVYYCQQYHRSPPTFGQGTKVEIKR noted as 62.6

Lab book: Exp 2 IC50 (nM), cAMP antagonist assay of RY-HL-LC-C12 FACS4 (IgG4 S228P) (antibody, V domains shown) VH: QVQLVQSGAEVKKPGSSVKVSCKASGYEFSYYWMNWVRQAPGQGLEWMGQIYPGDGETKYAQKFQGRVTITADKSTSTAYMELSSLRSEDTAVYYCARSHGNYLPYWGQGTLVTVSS VL: EIVLTQSPATLSLSPGERATLSCRASQSVSSRYLHWYQQKPGQAPRLLIYSTSRLASGIPARFSGSGSGTDFTLTISRLEPEDFAVYYCHQYHRSPPTFGQGTKVEIKR noted as 52.5

Lab book: Exp 2 IC50 (nM), cAMP antagonist assay of RY-LC-B12 FACS3 (IgG4 S228P) (antibody, V domains shown) VH: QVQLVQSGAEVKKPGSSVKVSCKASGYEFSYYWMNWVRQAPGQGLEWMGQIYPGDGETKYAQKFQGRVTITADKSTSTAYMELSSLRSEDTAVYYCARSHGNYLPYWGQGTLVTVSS VL: EIVLTQSPATLSLSPGERATLSCRASQSVSSRYLHWYQQKPGQAPRLLIYSTSRLASGIPARFSGSGSGTDFTLTISRLEPEDFAVYYCQQYHRSPPTFGQGTKVEIKR noted as 32.9
